endpoint.name: melting point

[
  {
    "compound": "Cn1c(=O)n(C)c2cc(C(=O)CSCCC(=O)O)c(Cl)cc21",
    "endpoint.name": "melting point",
    "reported.measurement": "148 to 150 °C"
  }
]

# query: melting point of entry Cc1ccccc1C=C1CSCC(=Cc2ccccc2C)C1=O
123 to 125 °C

Now give it for Cc1ccc(N2C(=O)C(O)=C(C(=O)c3ccc(C4CCCCC4)cc3)C2c2ccc(OC(F)(F)F)cc2)nn1 (stereo not given) too.
283 to 286 °C

What would you report for CC(=O)OC(OC(C)=O)c1ccc2occ(C#N)c(=O)c2c1 ?
185 to 186 °C

Now consider O=c1cc(O)cc(CBr)o1 .
77 to 78 °C

Ref: a melting point compilation (Tetko et al.; mined from patent text by program, amines drawn as free bases though some values may be those of a salt)
